- study.system: Aspartate--tRNA(Asp/Asn) ligase (Mycobacterium tuberculosis (strain ATCC 25618 / H37Rv)) (UniProt P9WFW3)
- Sequence (P9WFW3 whole entry): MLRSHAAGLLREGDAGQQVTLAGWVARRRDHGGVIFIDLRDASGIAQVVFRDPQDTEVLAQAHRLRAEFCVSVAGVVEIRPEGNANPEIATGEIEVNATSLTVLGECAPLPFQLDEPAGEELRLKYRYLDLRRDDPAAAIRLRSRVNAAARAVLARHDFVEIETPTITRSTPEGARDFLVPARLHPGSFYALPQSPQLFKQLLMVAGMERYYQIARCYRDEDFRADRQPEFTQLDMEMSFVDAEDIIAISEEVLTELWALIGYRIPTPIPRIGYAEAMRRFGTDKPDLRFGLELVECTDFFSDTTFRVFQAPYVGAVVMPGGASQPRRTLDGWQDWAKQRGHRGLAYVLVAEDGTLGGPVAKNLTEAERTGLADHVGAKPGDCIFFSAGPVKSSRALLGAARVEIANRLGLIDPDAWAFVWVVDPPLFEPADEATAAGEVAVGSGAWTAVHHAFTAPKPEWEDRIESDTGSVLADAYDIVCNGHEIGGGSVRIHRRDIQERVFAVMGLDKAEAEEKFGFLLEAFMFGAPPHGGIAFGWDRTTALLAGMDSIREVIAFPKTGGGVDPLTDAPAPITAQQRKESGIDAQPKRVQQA
- experimental.protocol: Assay for Asp RNA synthetase-1 from Mycobacterium tuberculosis
- Type: functional
- Set-up: scale not given: in the data most compounds retested in dose-response had high values
- assay.setup: 30 µM
property.label: Percent Effect (%)

compound	property.label	endpoint.result
COc1cccc(CN2CCC(c3cc(O)nc(C)n3)C2)c1 (configuration not stated)	Percent Effect	-3.62
CC(C)c1cc(NCC(C)N2CCCC2)n2nccc2n1 (configuration not stated)	Percent Effect	1.77
Cc1cc(C)nc(Nc2cc(C3CCCN(C)C3)nc(C)n2)n1 (configuration not stated)	Percent Effect	0.64
COc1cccc(OCC2CCCN(C(=O)c3cnc(C)nc3O)C2)c1 (configuration not stated)	Percent Effect	-0.346
Cc1nnc2n1CCN(C(=O)c1cc(Cl)c[nH]1)C2	Percent Effect	-0.345
O=C1CC(c2ccncc2)C2(CCN(C(=O)c3ccc[nH]3)CC2)N1 (configuration not stated)	Percent Effect	-0.81
c1ccc(CO[C@H]2CO[C@@]3(CCN(Cc4ccoc4)C3)C2)nc1	Percent Effect	2.15
Cc1csc(N2CCN(C(=O)CCNc3ncccn3)CC2)n1	Percent Effect	1.38
COc1cccc(CNC(=O)CC2CSc3ncc(C)c(=O)n32)c1 (configuration not stated)	Percent Effect	1.5
CCCc1noc(CCC(=O)N2CCCC2c2ccsc2)n1 (configuration not stated)	Percent Effect	-1.06
COc1ccccc1C1SCC(=O)Nc2n[nH]cc21 (configuration not stated)	Percent Effect	6.47
Cn1ccc(C(=O)N2CCC[C@]3(C[C@@H](OCc4ccccn4)CO3)C2)n1	Percent Effect	-1.05
Cn1cnnc1C1CCCN(C(=O)c2cc(Cl)c3c(c2)OCO3)C1 (configuration not stated)	Percent Effect	-5.25
Fc1ccc(CCN2CCC(c3nnc(-c4cccnc4)o3)CC2)cc1	Percent Effect	4.51
O=C(c1ccc(Cl)o1)N1CCCN(Cc2cscn2)CC1	Percent Effect	-7.87
O=C1CC2(CCN(CC3CCOC3)CC2)CN1Cc1cc(F)cc(F)c1 (configuration not stated)	Percent Effect	-4.88
Cc1cccnc1NC(=O)C1CCCN1Cc1ccccc1 (configuration not stated)	Percent Effect	-1.55
CN1CCOC(CNCc2coc(-c3cccs3)n2)C1 (configuration not stated)	Percent Effect	3.28
Cc1cnc2n(c1=O)CC(C(=O)Nc1ccccc1Cl)CS2 (configuration not stated)	Percent Effect	-5.41
CN(C)c1nc2c(c(N3CCC(O)CC3)n1)CN(CC1CCNC1)CC2 (configuration not stated)	Percent Effect	3.47
Cc1noc(C)c1CN1CC[C@@H](OCC2CC2)[C@@H](Cc2ccccc2)C1	Percent Effect	0.779
COC(=O)CC(c1ccc(OC)c(OC)c1)c1oc(C)cc(=O)c1O (configuration not stated)	Percent Effect	-0.938
O=C(NC1CCCC1)NC1CCC(C(=O)N2CCSCC2)CC1 (configuration not stated)	Percent Effect	1.78
CS(=O)(=O)c1ccc(CNC(=O)N2CCC(c3ccccc3)CC2)cc1	Percent Effect	-2.06
CC(C)c1nc2c(n1C)CCN(Cc1nc(-c3ccsc3)no1)C2	Percent Effect	-3.99
CC(C)(C(=O)NCC(N)=O)c1ccccc1F	Percent Effect	-1.56
CN(C)CCO[C@@H]1CC[C@H]2[C@H]1OCCN2C(=O)CCc1ccccc1	Percent Effect	-1.17
COCCn1nc(C(=O)N2CCCC2c2cccc(F)c2)ccc1=O (configuration not stated)	Percent Effect	2.11
COCC(=O)N1CCC2(CC1)COCCN2CCN(C)C	Percent Effect	3.2
CSCC(CCO)NC(=O)Nc1cc(Br)ccc1C (configuration not stated)	Percent Effect	3.02
CCn1cc(CN(C)S(=O)(=O)c2cnn(CC)c2C)c(C)n1	Percent Effect	-3.81
CCC(C)N(C)CCNC(=O)NCc1cccc(-n2cncn2)c1 (configuration not stated)	Percent Effect	-1.54
CC(NC(=O)NCc1cc[nH]n1)c1ccc2c(c1)CCC(=O)N2 (configuration not stated)	Percent Effect	-1.15
O=C(c1ccco1)N1CCCC1C1CCN(Cc2ccccc2)CC1 (configuration not stated)	Percent Effect	4.64
O=C(NCC1CCS(=O)(=O)C1)c1sccc1-c1ccc(F)cc1 (configuration not stated)	Percent Effect	-1.09
Cc1ccc(CC(=O)N2CSCC2C(=O)N(C)Cc2ccco2)o1 (configuration not stated)	Percent Effect	8.09
CN(Cc1ccco1)[C@@H]1CN(Cc2ccc(F)cc2)C[C@@H]2CCCO[C@@H]21	Percent Effect	6.12
Cc1cnn(CC2CCCCN2C(=O)c2ccc3[nH]nnc3c2)c1 (configuration not stated)	Percent Effect	0.548
Cc1nnc2n1CCN(Cc1ncc(-c3ccc(Cl)cc3)o1)C2	Percent Effect	-2.3
CC(Cn1cccn1)NC(=O)NCCc1cnn(C)c1 (configuration not stated)	Percent Effect	-2.54
CCc1nnc2n1CCN(C(=O)c1ccc(-c3ccco3)nc1C)C2	Percent Effect	-3.2
c1coc(CN2CCCC3(COCCN(Cc4c[nH]nn4)C3)C2)c1 (configuration not stated)	Percent Effect	2.45
CC1CCN(c2ncc3c(n2)CN(c2ccccc2)C3=O)CC1	Percent Effect	3.06
O=C(c1ccccc1-c1ccccc1)N1CCOC2(CNCCOC2)C1 (configuration not stated)	Percent Effect	1.51
OC(CN1CCN(Cc2ccc(F)cc2)CC1)C1CC1 (configuration not stated)	Percent Effect	-7.53
COCCN1C[C@@H](C)[C@@]2(COCCN(C(=O)Cc3ccccc3)C2)C1	Percent Effect	1.75
CNCCc1nc2cc(Cl)ccc2[nH]1	Percent Effect	0.126
